system: SK-MEL-5 melanoma; assay: NCI-60 one-dose screen, 48 h (100 = growth as untreated, 0 = no growth, -100 = all killed); details: 10 µM unless noted
This is part of a sample that, as a whole, favours compounds with a hit. Of some 83,000 tested, about 20% had one in any assay.
MEASUREMENT_NAME: growth (%)
Please respond with the number in % and leave the unit unwritten.

Worked examples, 3 compounds total:
[[record]]
substance_smiles = "CC(=O)n1cc([C@H]2CC[C@H](c3cn(C(C)=O)c4ccccc34)c3c2[nH]c2ccccc32)c2ccccc21"
measurement_name = "growth"
result_value = 80

[[record]]
substance_smiles = "COc1ccc(-c2nc3sccn3c2-c2ccnc(NCCCNS(=O)(=O)c3ccc(C)cc3)n2)cc1"
measurement_name = "growth"
result_value = -5.18

[[record]]
substance_smiles = "COc1cc(/C=C/C(=O)c2ccccc2O)ccc1OCCCOc1cc2c(cc1OC)C(=O)N1CCC[C@H]1C=N2"
measurement_name = "growth"
result_value = -76.5


// query Report growth for "COc1cccc(/C=C2\SC(N3CCN(c4ccccn4)CC3)=NC2=O)c1" please.
// result 97.1

// query Report growth for "O=[N+]([O-])c1ccc(S(=O)(=O)N2CCN(c3ccnc4cc(Cl)ccc34)CC2)c([N+](=O)[O-])c1" please.
// result 98.8

// query Report growth for "CC(C)N(Cc1ccc(CN(C(=O)CCl)C(C)C)cc1)C(=O)CCl" please.
// result 17.9

// query Report growth for "O=C(CCl)NCCNc1nccc(Nc2ccc(S(=O)(=O)Nc3ccccn3)cc2)n1" please.
// result -41.6

// query Report growth for "COc1cccc(-n2cc(-c3nc(Cl)c4ccccc4n3)nn2)c1" please.
// result 95.1

// query Report growth for "Cc1oc2nc[nH]c(=O)c2c1C(=O)/C=C/c1ccc(Cl)cc1Cl" please.
// result 81.6

----------
Recorded growth, one value per entry.
tested on: SNB-75 CNS; assay: NCI-60 one-dose screen, 48 h (100 = growth as untreated, 0 = no growth, -100 = all killed); conditions: 10 µM unless noted
About 83,000 compounds went through this panel and 20% of them were active in at least one assay; those are over-represented in the sample as a whole.
Please respond with the number in % and leave the unit unwritten.

[[record]]
compound = "CCN(CC)CCCC(C)N=c1cc(Nc2cc(=NC(C)CCCN(CC)CC)c3cc(OC)ccc3o2)oc2ccc(OC)cc12 (configuration not stated)"
measurement_name = "growth"
unit_info = "%"
result_value = -90.8

[[record]]
compound = "CC(=O)Nc1ccc(S(=O)(=O)N2C(=O)CCC2C(=O)Nc2ccccc2)cc1 (configuration not stated)"
measurement_name = "growth"
unit_info = "%"
result_value = 28.9


// query Report growth for "O=c1[nH]c(-c2cn(-c3ccc(Cl)cc3)nn2)nc2ccccc12" please.
// result -9.19

// query Report growth for "CCSc1nnc(NC(=O)COc2ccc(Cl)cc2C)s1" please.
// result 110

// query Report growth for "CC/C=C\C[C@H]1C/C=C2/C(=O)C(Cl)=C[C@@H]2C/C=C\CCCC(=O)O1" please.
// result -19.9

----------
Recorded growth, one value per entry.
test system: NCI-H322M lung; assay: NCI-60 one-dose screen, 48 h (100 = growth as untreated, 0 = no growth, -100 = all killed); details: 10 µM unless noted
Compounds without any hit were thinned out: in the full panel of roughly 83,000, 20% have a hit. The source made the active and inactive calls. Rule for the calls: active = growth percent below 10; inactive = the rest.

Worked examples, 6 compounds total:
[[record]]
compound = "CN(C)C1CCC(NC2=CC(=O)C=CC2=O)CC1 (stereo not given)"
tgt = "NCI-H322M lung"
measurement_name = "growth"
result_value = "102% (inactive)"

[[record]]
compound = "O=C(CN1CCN(c2cc3c(cc2F)c(=O)c(C(=O)O)cn3C2CC2)CC1)Nc1ccc(C(=O)/C=C/c2ccccc2)cc1"
tgt = "NCI-H322M lung"
measurement_name = "growth"
result_value = "73.7% (inactive)"

[[record]]
compound = "COc1cc(OC)c(C(=O)/C=C/c2ccc(C(F)(F)F)cc2)c(OC)c1"
tgt = "NCI-H322M lung"
measurement_name = "growth"
result_value = "62% (inactive)"

[[record]]
compound = "O=C1CCCCN1CCCCC#Cc1ccccc1C#Cc1ccc([N+](=O)[O-])cc1"
tgt = "NCI-H322M lung"
measurement_name = "growth"
result_value = "71% (inactive)"

[[record]]
compound = "O=C(CCCn1c(=O)c2sc3ccccc3c2n2nnc(-c3ccccc3)c12)NCCc1cnc[nH]1"
tgt = "NCI-H322M lung"
measurement_name = "growth"
result_value = "-13.7% (active)"

[[record]]
compound = "NC(=O)NNC(=O)c1ccccc1"
tgt = "NCI-H322M lung"
measurement_name = "growth"
result_value = "109% (inactive)"


// query Report growth for "CCN(CC)CCC(=O)c1cccc2ccccc12" please.
// result 103% (inactive)

----------
system: OVCAR-4 ovarian; assay: NCI-60 one-dose screen, 48 h; details: 10 µM unless noted
Compounds without any hit were thinned out: in the full panel of roughly 83,000, 20% have a hit. Active and inactive are the calls of the source. How the source made its calls: active means growth percent below 10; inactive means the rest.
Could you please pick one outcome from this set? class 1 = active, class 0 = inactive

[[record]]
compound = "O=C(NCCCN1CCN(CCCNC(=O)C2CCCCC2)CC1)C1CCCCC1"
tgt = "OVCAR-4 ovarian"
assigned_class = "class 0"

[[record]]
compound = "COC(=O)CCCCCCN=Cc1c(O)c(O)c(C(C)C)c2cc(C)c(-c3c(C)cc4c(C(C)C)c(O)c(O)c(C=NCCCCCCC(=O)OC)c4c3O)c(O)c12"
tgt = "OVCAR-4 ovarian"
assigned_class = "class 0"

[[record]]
compound = "CC(Cc1nnc(SCC(=O)Nc2ccc(I)cc2)n1N)c1ccccc1 (centres undefined)"
tgt = "OVCAR-4 ovarian"
assigned_class = "class 0"


// query I would be grateful if you could indicate the recorded call for "COc1ccc(C(=O)N2CCN(C(=O)c3cc(OC)c(OC)c(OC)c3)CC2)cc1OCCCCOc1cc2c(cc1OC)C(=O)N1CCC[C@H]1C=N2" .
// result class 0

// query I would be grateful if you could indicate the recorded call for "CCCCCc1c(C)[nH]c(/C=c2\[nH]/c(=C3/C=c4ccccc4=N3)cc2OC)c1C" .
// result class 1

// query I would be grateful if you could indicate the recorded call for "Cn1c(-c2nonc2NC(=O)c2ccc(F)cc2)nc2ccccc21" .
// result class 0

// query I would be grateful if you could indicate the recorded call for O=C1NCC(c2cc3ccccc3[nH]c2=O)Nc2ccccc21 (centres undefined) .
// result class 0

// query I would be grateful if you could indicate the recorded call for "COc1ccc(/C=C/C(=O)c2cccc(B(O)O)c2)cc1O" .
// result class 0

// query I would be grateful if you could indicate the recorded call for "COc1ccc(/C=C2\Oc3cc(OCCN4CCCC4)ccc3C2=O)c(OC)c1" .
// result class 0

----------
Recorded growth, one value per entry.
tested on: PC-3 prostate; assay: NCI-60 one-dose screen, 48 h (100 = growth as untreated, 0 = no growth, -100 = all killed); settings: 10 µM unless noted
About 83,000 compounds went through this panel and 20% of them were active in at least one assay; those are over-represented in the sample as a whole.
Please respond with the number in % and leave the unit unwritten.

Worked examples, 10 compounds total:
[[record]]
compound = "O=C(Nc1ccccc1)OCC1OCOC(COC(=O)Nc2ccccc2)C1OC(=O)Nc1ccccc1 (centres undefined)"
unit_info = "%"
result_value = 64.2

[[record]]
compound = "CCN1C(=O)N(CC)C2Nn3c(s/c(=C\\c4cccc(F)c4)c3=O)=NC21 (centres undefined)"
unit_info = "%"
result_value = 52.9

[[record]]
compound = "Nc1ccc(S(=O)(=O)c2ccc(Cl)cc2)cc1"
unit_info = "%"
result_value = 89.7

[[record]]
compound = "O=C(O)C(=Cc1c2ccccc2cc2ccccc12)C(=O)O"
unit_info = "%"
result_value = 97.2

[[record]]
compound = "CC/C(=C(\\c1ccc(O)cc1)c1ccc(OCCN(C)CCN(C)C(=O)CCC(=O)c2c(C)[nH]c(/C=C3\\N=C(c4ccc[nH]4)C=C3OC)c2C)cc1)c1ccccc1"
unit_info = "%"
result_value = 61.4

[[record]]
compound = "COc1cc(OC)c(C(=O)/C=C/c2cccc(C#N)c2)c(OC)c1"
unit_info = "%"
result_value = 32.1

[[record]]
compound = "NS(=O)(=O)c1ccc(CN2C(=O)c3cccc4cccc(c34)C2=O)cc1"
unit_info = "%"
result_value = 93.3

[[record]]
compound = "C=C1C(=O)O[C@H]2[C@H]1CC/C(Cn1cc(-c3ccsc3)nn1)=C\\CC[C@@]1(C)O[C@@H]21"
unit_info = "%"
result_value = -20.4

[[record]]
compound = "CC[C@]1(O)C[C@@H]2CN(Cc3c([nH]c4ccccc34)[C@@](C(=O)OC)(c3cc4c(cc3OC)N(C)[C@H]3[C@@](O)(C(=O)OC)[C@H](OC(C)=O)[C@]5(CC)[C@@H]6C[C@@H]6CN6CC[C@]43[C@@H]65)C2)C1"
unit_info = "%"
result_value = 14

[[record]]
compound = "CC(C)(C)c1cc(-c2nc3ccc(N4CCN(CCO)CC4)cc3[nH]2)cc(C(C)(C)C)c1O"
unit_info = "%"
result_value = 58.3


// query Report growth for "COc1cc(/C=C/C(=O)c2ccccc2O)ccc1OCCCOc1cc2c(cc1OC)C(=O)N1CCC[C@H]1C=N2" please.
// result 10.7

// query Report growth for COC12CC(=O)C(C(C)=O)=C(O)C1(C)c1c(O)c(C)c(O)c(C(C)=O)c1O2 (centres undefined) please.
// result 73

// query Report growth for "CCCCCCCN(CCCCCCC)C(=N)c1ccc(OC)c2ccccc12" please.
// result -92.3

// query Report growth for "Cc1nc2sccn2c1-c1csc(Nc2ccccc2Cl)n1" please.
// result 53.5

// query Report growth for "COc1cc(NC(=O)CSc2nc3ccc(C)cc3c(=O)n2-c2ccccc2)cc(OC)c1OC" please.
// result 82

// query Report growth for "CN1CCN(CCCOc2ccc3nc(Nc4ccc(C(F)(F)F)c(Cl)c4)ccc3c2)CC1" please.
// result 8.45

// query Report growth for Cc1cc2c(c(=O)o1)C(c1ccc(OC(=O)N3CCOCC3)cc1)C(C#N)=C(N)O2 (centres undefined) please.
// result 103

// query Report growth for "COc1ccc(C(=O)/C=C/c2cccc([N+](=O)[O-])c2)c(OC)c1" please.
// result 33.3

// query Report growth for "Cc1ccc(Nc2ncnc3c2sc2ncccc23)cc1" please.
// result 103
